# test.description: Inhibitory activity of against carboxypeptidase A (CPA)
Here the recorded pKi is given for each entry.
Scale note: pKi = -log10(concentration in M).

- O=C1N[C@H]([C@H](Cc2ccccc2)C(=O)O)CO1: 3.05

### Prompt Sample O=C1N[C@@H]([C@@H](Cc2ccccc2)C(=O)O)CO1 — what was its pKi?
### Response 2.78
